Catalogue of IC50 readings, one per entry.
- target_or_test_system: human 11β-HSD1 (Homo sapiens, UniProt P28845)
- protocol_notes: Scintillation Proximity Assay: inhibition of purified 11β-HSD1 (Biological Test Example 1)
- Type: biochemical
- Design: made in house; host or cells: E. coli
- study_conditions: purified recombinant 11β-HSD1, SPA; read-out: Biological Test Example 1 (IC50 class)
- Sequence (P28845 whole entry, species assumed): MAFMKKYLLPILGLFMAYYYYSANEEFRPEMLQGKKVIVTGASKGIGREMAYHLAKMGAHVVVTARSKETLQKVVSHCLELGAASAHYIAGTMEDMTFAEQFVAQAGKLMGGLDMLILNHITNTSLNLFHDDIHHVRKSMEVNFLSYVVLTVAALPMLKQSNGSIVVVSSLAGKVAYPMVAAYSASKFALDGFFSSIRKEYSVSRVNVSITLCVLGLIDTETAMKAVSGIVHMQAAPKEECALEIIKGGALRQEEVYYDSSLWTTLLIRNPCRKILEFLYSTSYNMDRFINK

| compound | IC50 |
| --- | --- |
| CC(C)(C)OC(=O)N1CCC2(CCN(C(=O)NC3C4CC5CC(C4)CC3C5)CC2)CC1 (stereo not drawn) [Example 8] | 0.05 to 1 µM |
| Cc1ccc2c(c1)C1(CCN(C(=O)OC3C4CC5CC(C4)CC3C5)CC1)CN2 (stereo not drawn) [Example 22] | < 0.05 µM |
| CCOC(=O)C1=CC2(CCN(C(=O)NC3C4CC5CC(C4)CC3C5)CC2)c2ccccc21 (stereo not drawn) [Example 15] | < 0.05 µM |

// moving on: another record for IC50
Prompt line: Provide measured IC50 value, entry: CCOC(=O)CC1CC2(CCN(C(=O)NC3C4CC5CC(C4)CC3C5)CC2)Oc2ccccc21 (racemic) [Example 18]
Response line: 0.05 to 1 µM

====

Catalogue of pIC50 readings, one per entry.
- target_or_test_system: human 11β-HSD1 (Homo sapiens, UniProt P28845)
- protocol_notes: Inhibition of a microsomal preparation of 11β-HSD1, SPA (Biological Test Example 2)
- Format: biochemical
- Set-up: expressed in transfected cells; host or cells: CHO cells (microsomes)
- study_conditions: read-out: Biological Test Example 2 (IC50 class)
- Sequence (P28845 whole entry): as the sequence (P28845 whole entry, species assumed) above
pIC50: −log10 of the molar value.

| compound | pIC50 |
| --- | --- |
| O=C(O)CC1CC2(CCN(C(=O)NC3C4CC5CC(C4)CC3C5)CC2)c2cc(Cl)ccc21 (racemic) | > 7.30 |
| O=C(O)CC1CC2(CCN(C(=O)NC3C4CC5CC(C4)CC3C5)CC2)c2c(Cl)cccc21 (racemic) | > 7.30 |

Prompt line: Provide measured pIC50 value, entry: N#Cc1ccc(N2Cc3ccccc3C3(CCN(C(=O)OC4C5CC6CC(C5)CC4C6)CC3)C2)nc1 (stereo not shown)
Response line: > 7.30

Prompt line: Provide measured pIC50 value, entry: CN(C)CC1CC2(CCN(C(=O)OC3C4CC5CC(C4)CC3C5)CC2)c2c(Br)cccc21 (racemic)
Response line: > 7.30

Prompt line: Provide measured pIC50 value, entry: CN1Cc2cccc(Cl)c2C12CCN(C(=O)NC1C3CC4CC(C3)CC1C4)CC2 (stereo not shown)
Response line: > 7.30

Prompt line: Provide measured pIC50 value, entry: O=C(OC1C2CC3CC(C2)CC1C3)N1CCC2(CC1)OCc1ccccc12 (stereo not shown)
Response line: > 7.30

Prompt line: Provide measured pIC50 value, entry: O=C(O)CC1CC2(CCN(C(=O)OC3C4CC5CC3CC(C(=O)NCc3ccccc3)(C5)C4)CC2)c2ccccc21 (stereo not shown)
Response line: 6.00 to 7.30

====

Catalogue of IC50 readings, one per entry.
- target_or_test_system: human 11β-HSD1 (Homo sapiens, UniProt P28845)
- protocol_notes: Scintillation Proximity Assay: inhibition of purified 11β-HSD1 (Biological Test Example 1)
- Assay type: biochemical
- Set-up: made in house; host or cells: E. coli
- study_conditions: purified recombinant 11β-HSD1, SPA; read-out: Biological Test Example 1 (IC50 class)

Study these solved cases before continuing.
| molecule | result |
| --- | --- |
| CC(C)(C)OC(=O)N1CCC2(CCCN(C(=O)NC3C4CC5CC(C4)CC3C5)C2)C1 (racemic) [Example 10] | 50 to 1000 nM |
| Cc1ccc2c(c1)C1(CCN(C(=O)OC3C4CC5CC(C4)CC3C5)CC1)CN2C(=O)OC(C)(C)C (stereo not shown) [Example 130] | 50 to 1000 nM |
| O=C(O)C1CC2(CCN(C(=O)NC3C4CC5CC(C4)CC3C5)CC2)Oc2ccccc21 (racemic) [Example 13] | 50 to 1000 nM |

Prompt line: State, for human 11β-HSD1 (Homo sapiens, UniProt P28845), measured IC50 of the molecule listed here: O=C(OC1C2CC3CC(C2)CC1C3)N1CCC2(CC1)OCc1ccccc12 (stereo not shown) [Example 84]
Response line: < 50 nM
